Kindly state Response Average Change for each of the entries shown.
# Test system: vasopressor response of angiotensin II
# test.method.notes: AII Challenge: antagonism of angiotensin II vasopressor response;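 further: post-dose Angiotensin II-evoked rise in systolic blood pressure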
# Assay type: in vivo
# test.conditions: 1 mg/kg i.v.; AII 0.1 mcg/kg IV; 180 min post dose
Your answer should be a number followed by the unit of measure.

// Response Average Change value for CCCCc1nc2ccc([C@@]3(CC)C[C@@H]4CCCN4O3)cc2c(=O)n1Cc1ccc(-c2ccccc2-c2nnn[nH]2)cc1 (relative stereo) : 15 mmHg

Entry CCCCc1nc2ccc([C@@]3(c4ccccc4)C[C@@H]4CCCN4O3)cc2c(=O)n1Cc1ccc(-c2ccccc2-c2nnn[nH]2)cc1 (relative stereo) ; Response Average Change = 30 mmHg

Record CCCCc1nc2ccc(C3(C(=O)OC)CC4CCCN4O3)cc2c(=O)n1Cc1ccc(-c2ccccc2-c2nnn[nH]2)cc1 (mixture of isomers) . Reported Response Average Change: 12.5 mmHg

For CCCCc1nc2ccc([C@@]3(C)C[C@@H]4CCC(C)(C)N4O3)cc2c(=O)n1Cc1ccc(-c2ccccc2-c2nnn[nH]2)cc1 (relative stereo) the molecule record lists Response Average Change as 14 mmHg

Per the record, CCCCc1nc2ccc([C@]3(CC)C[C@@H]4CCCN4O3)cc2c(=O)n1Cc1ccc(-c2ccccc2-c2nnn[nH]2)cc1 (relative stereo) has Response Average Change of 35 mmHg

Record CCCCc1nc2ccc(C3(CO)CC4CCCN4O3)cc2c(=O)n1Cc1ccc(-c2ccccc2-c2nnn[nH]2)cc1 (stereo not drawn) . Reported Response Average Change: 17.5 mmHg
